Target: T1, HA-GCN4 hAPRIL (amino acid residues 105-250) (human, UniProt O75888 105-250)
T1 construct: Bought (R&D Systems); also called HA-tagged GCN4 human APRIL; HA-GCN4-huAPRIL; not shown: N-terminal HA tag; GCN4 isoleucine zipper oligomerization domain
T1 sequence: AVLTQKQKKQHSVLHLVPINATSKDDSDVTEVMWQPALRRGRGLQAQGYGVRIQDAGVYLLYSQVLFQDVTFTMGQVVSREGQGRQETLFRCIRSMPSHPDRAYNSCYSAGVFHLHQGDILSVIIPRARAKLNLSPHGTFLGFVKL
Test: indirect ELISA on human APRIL; column head prints IC50 (pM), legend paragraph 725 calls the values EC50
Description: Purified antibodies were further characterized for APRIL binding, APRIL species cross reactivity (human APRIL vs. mouse APRIL), and receptor blocking activity using TACI-Fc. […] Binding of anti-APRIL antibodies to APRIL was quantified using an 8 point dilution of test antibody that spanned over a four log scale. Antibody binding to APRIL was detected using a rabbit anti-mouse IgG (H+L)-HRP conjugate (Jackson ImmunoResearch Laboratories). […]
MEASUREMENT LABEL: EC50 (nM)
Give bare numbers, in nM.

3934 (antibody, V domains shown, also called monoclonal antibody 3934) VH: QVQLQQSGPELVKPGASVKLSCKAAGYIFTDYTINWVKQSPGQGLEWIGWIYPGSGNRKYNDKFKGKATMTADKSSSTAYMQLSSLTSEDSAVYFCARESNYVGYYAMDYWGQGTSVTVSS VL: DVLMTQTPLSLPVSLGDQASISCRSSQSVVNSNGNTYLEWYLQKPGQSPNLLIYKVSNRFSGVPDRFSGSGSGTDFTLKISRVEAEDLGVYYCFQGSHVPWTFGGGTKLEIK    0.0101

Take each entry in turn and give its EC50.
1. monoclonal antibody 3732 (antibody, V domains shown, mouse-derived) VH: EIQLQQSGPELVKPGASVKVSCKASGYSFTDDNMYWVKQSHGKSLEWIGYIDPLNGGTGYNQKFKGKATLTVDKSSSTAFLHLNSLTSEDSAVYYCARRDNYATGTMDYWGQGTSVTVSS VL: DIVMTQSQKFMSTSVGDRVSITCKASKNVGTDVSWYQQKPGKSPKPLIYWASNRFTGVPDRFTGSGSGTDFTLTINNVQSEDLADYFCEQYSSYPLTFGAGTKLELK
2. monoclonal antibody 2218 (antibody, mouse IgG2, V domains shown) VH: DVQLQESGPGLVKPSQSLSLTCSVTGYSITSGYYWNWIRQFPGNKLEWMGYISYDGYNNYNPSLKNRISITRDTSKNQFFLKLNSVTTEDTATYYCANYYDYEDWYFGVWGTGTTVTVSS VL: DIVLTQSPASLAMSLGKRATISCRASESVSIIGTNSIHWYQQKPGQPPKLLIYHASNLETGVPARFSGSGSRTDFTLTIDPVEEDDVAIYYCLQSRKIPYTFGGGTKLEIK
3. monoclonal antibody 3833 (antibody, V domains shown, mouse-derived) VH: QVQLQQSGAELVRPGTSVKMSCKAAGYTFTNYWIGWVKQRPGHGLEWIGDIYPGGIGGGYTKYNEKFKGKATLTADTSSSTAYMQLGSLTSEDSAIYFCSRSETGRAMDYWGQGTSVTVSS VL: DIQMTQSPSSLSASLGGKVTITCKASQDINKYIAWYQHKPGKGPRLLIHYTSTLKPGIPSRFSGSGSGRDYSFSISDLEPEDIATYYCLQYDNLNTFGGGTKLEIK

OUTPUT:
1. 0.0072
2. 0.005
3. 0.0175

INPUT: Identify EC50 associated with the binder monoclonal antibody 4540 (antibody, V domains shown, mouse-derived) VH: QVQLQQSGPELVKPGASVKISCKASGYTFADYYINWVKQRPGQGLEWIGWIFPGSGSTYYNEKFKGKATLTVDKSSSTAYMLLSSLTSEDSAVYFCARGDSGRAMDYWGQGTSVTVSS VL: DIQMTQSPSSLSASLGGKVTITCKASQDINKYIAWYQHKPGKGPRLLIHYTSTLQSGIPSRFSGSGSGRDYSFSISNLEPEDNATYYCLQYDNLLTFGAGTKLELK
OUTPUT: 0.0129
